Source: patent US7473688B2

# ASSAYED TARGET: HCV NS5B (Hepatitis C virus genotype 1b)
# Construct: The protein was expressed with an 18 amino acid C-terminal truncation to enhance the solubility; made in house; host or cells: E. coli BL21 (DE3), pET21a
# Sequence (Q9WMX2 2420-2992): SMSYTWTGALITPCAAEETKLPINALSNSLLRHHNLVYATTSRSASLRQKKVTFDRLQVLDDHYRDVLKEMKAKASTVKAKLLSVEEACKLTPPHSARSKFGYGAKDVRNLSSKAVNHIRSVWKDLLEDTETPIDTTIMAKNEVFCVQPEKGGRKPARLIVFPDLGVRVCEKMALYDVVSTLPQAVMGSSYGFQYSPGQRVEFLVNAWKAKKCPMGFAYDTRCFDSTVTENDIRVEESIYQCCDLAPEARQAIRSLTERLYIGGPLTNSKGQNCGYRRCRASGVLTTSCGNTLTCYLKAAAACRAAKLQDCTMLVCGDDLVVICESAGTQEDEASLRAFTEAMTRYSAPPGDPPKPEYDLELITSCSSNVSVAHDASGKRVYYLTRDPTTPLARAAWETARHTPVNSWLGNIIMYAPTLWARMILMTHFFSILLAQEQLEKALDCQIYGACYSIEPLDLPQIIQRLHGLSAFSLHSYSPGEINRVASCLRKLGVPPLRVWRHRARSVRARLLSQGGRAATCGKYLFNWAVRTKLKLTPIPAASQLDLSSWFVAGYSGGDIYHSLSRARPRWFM
# ASSAY INFO: HCV NS5B RdRp enzyme assay (preincubation protocol)
# Format: biochemical
# CONDITION DETAILS: Table 1a, read-out: IC50*
# Procedure: HCV NS5B RdRp cloning, expression, and purification. The cDNA encoding the NS5B protein of HCV, genotype 1b, was cloned into the pET21a expression vector. The protein was expressed with an 18 amino acid C-terminal truncation to enhance the solubility. […] Standard HCV NS5B RdRp enzyme assay. […] Plates were read on a Packard Top Count NXT after >1 hr incubation at room temperature. […] IC50 values for compounds were determined using seven different [I]. […]
Reported IC50 values for a set of compounds

COc1ccc2c(c1)C=C(C(=O)NCCN1C[C@@H](C)O[C@@H](C)C1)Cn1c-2c(C2CCCCC2)c2ccc(C(=O)NS(=O)(=O)N(C)C)cc21	10 to 1000 nM
CNC(=O)CNC(=O)C1=Cc2cc(OC)ccc2-c2c(C3CCCCC3)c3ccc(C(=O)NS(=O)(=O)N(C)C)cc3n2C1	10 to 1000 nM
COc1ccc2c(c1)CC(C(=O)NCc1cc(C)nn1C)Cn1c-2c(C2CCCCC2)c2ccc(C(=O)NS(=O)(=O)N(C)C)cc21 (centres unmarked)	10 to 1000 nM
CCOC(=O)[C@H]1C[C@@H](O)CN1C(=O)C1=Cc2cc(OC)ccc2-c2c(C3CCCCC3)c3ccc(C(=O)NS(=O)(=O)N(C)C)cc3n2C1	< 20 nM
COc1ccc2c(c1)C=C(C(=O)N(C)CC(=O)N1CC(OC)C1)Cn1c-2c(C2CCCCC2)c2ccc(C(=O)NS(=O)(=O)N(C)C)cc21	10 to 1000 nM

Q: Looking for the measured IC50 of `COc1ccc2c(c1)C=C(C(=O)N1C[C@@H](C)N(C)[C@@H](C)C1)Cn1c-2c(C2CCCCC2)c2ccc(C(=O)NS(=O)(=O)N(C)C)cc21` , can you help?
A: 10 to 1000 nM

Q: Looking for the measured IC50 of `COc1ccc2c(c1)C=C(C(=O)N(C)CCN(C)C(C)=O)Cn1c-2c(C2CCCCC2)c2ccc(C(=O)NS(=O)(=O)N(C)C)cc21` , can you help?
A: 10 to 1000 nM

Q: Looking for the measured IC50 of COc1ccc2c(c1)C=C(C(=O)N(C)C1CCS(=O)(=O)C1)Cn1c-2c(C2CCCCC2)c2ccc(C(=O)NS(=O)(=O)N(C)C)cc21 (centres unmarked) , can you help?
A: 10 to 1000 nM

Q: Looking for the measured IC50 of COc1ccc2c(c1)CC(N(C)C(=O)C1CCOCC1)Cn1c-2c(C2CCCCC2)c2ccc(C(=O)NS(=O)(=O)N(C)C)cc21 (centres unmarked) , can you help?
A: 10 to 1000 nM

Q: Looking for the measured IC50 of `COC(=O)[C@@H]1C[C@@H](O)CN1C(=O)C1=Cc2cc(OC)ccc2-c2c(C3CCCCC3)c3ccc(C(=O)NS(=O)(=O)N(C)C)cc3n2C1` , can you help?
A: 10 to 1000 nM

Q: Looking for the measured IC50 of COc1ccc2c(c1)CC(NC(=O)N1CCN(C(N)=O)CC1)Cn1c-2c(C2CCCCC2)c2ccc(C(=O)NS(=O)(=O)N(C)C)cc21 (centres unmarked) , can you help?
A: 10 to 1000 nM

Q: Looking for the measured IC50 of `COc1ccc2c(c1)C=C(C(=O)NCCNC(C)=O)Cn1c-2c(C2CCCCC2)c2ccc(C(=O)NS(=O)(=O)N(C)C)cc21` , can you help?
A: 10 to 1000 nM

Q: Looking for the measured IC50 of COC(=O)c1ccc2c(C3CCCCC3)c3n(c2c1)CC(NC(=O)C1CCCC(OC)C1)Cc1ccccc1-3 (centres unmarked) , can you help?
A: > 1000 nM

Q: Looking for the measured IC50 of `COc1ccc2c(c1)C=C(C(=O)N1CC(OC)C1)Cn1c-2c(C2CCCCC2)c2ccc(C(=O)NS(=O)(=O)N(C)C)cc21` , can you help?
A: < 20 nM
